System: L. mexicana intracellular amastigotes
Experiment: Intracellular amastigote assay, L. mexicana
Assay type: cell-based
Details: Leishmania mexicana, read-out: EC50 ± SD, intracellular amastigotes, L. mexicana
Friendly reminder: EC50 below 3 µM is YES, at or above is NO.

COMPOUND: C[C@@H]1[C@H](O)[C@@H](C)/C=C/C=C/C=C/C=C/C=C/C=C/C=C/[C@H](O[C@@H]2O[C@H](C)[C@@H](O)[C@H](N)[C@@H]2O)C[C@@H]2O[C@](O)(C[C@@H](O)C[C@@H](O)[C@H](O)CC[C@@H](O)C[C@@H](O)CC(=O)O[C@H]1C)C[C@H](O)[C@H]2C(=O)O [AmB, Amphotericin B, reference compound]
SUBJECT_OF_TEST: L. mexicana intracellular amastigotes
ASSIGNED_LABEL: YES
--
COMPOUND: CN(C)CCCCCOc1nn(Cc2ccccc2)c2ccc([N+](=O)[O-])cc12
SUBJECT_OF_TEST: L. mexicana intracellular amastigotes
ASSIGNED_LABEL: NO
--
COMPOUND: CNCCCCCOc1nn(Cc2ccccc2)c2ccc([N+](=O)[O-])cc12
SUBJECT_OF_TEST: L. mexicana intracellular amastigotes
ASSIGNED_LABEL: YES
--
COMPOUND: O=[N+]([O-])c1ccc2c(c1)c(OCCN1CCCCC1)nn2Cc1ccccc1
SUBJECT_OF_TEST: L. mexicana intracellular amastigotes
ASSIGNED_LABEL: NO
--
COMPOUND: CNCCOc1nn(Cc2ccccc2)c2ccc([N+](=O)[O-])cc12
SUBJECT_OF_TEST: L. mexicana intracellular amastigotes
ASSIGNED_LABEL: NO
--
COMPOUND: O=[N+]([O-])c1ccc2c(c1)c(OCCCCCN1CCCCC1)nn2Cc1ccccc1
SUBJECT_OF_TEST: L. mexicana intracellular amastigotes
ASSIGNED_LABEL: NO

###

System: L. amazonensis intracellular amastigotes
Experiment: Intracellular amastigote assay, L. amazonensis
Format: cell-based
Conditions: intracellular amastigotes, L. amazonensis; read-out: EC50 ± SD
pEC50: −log10 of the molar value.

COMPOUND_STRING: NCCOc1nn(Cc2ccccc2)c2ccc([N+](=O)[O-])cc12
SUBJECT_OF_TEST: L. amazonensis intracellular amastigotes
pEC50: 5.36

###

Listed here: items and their measured IC50.
Tested on: L. infantum promastigotes
Test: Susceptibility assay in promastigotes, L. infantum
Assay type: cell-based
Conditions: Leishmania infantum, 72 h, promastigotes, L. infantum, read-out: IC50 ± SD

COMPOUND_STRING: O=[N+]([O-])c1ccc2c(c1)c(OCCCCCBr)nn2Cc1ccccc1
SUBJECT_OF_TEST: L. infantum promastigotes
QUALIFYING_SIGN: =
IC50, nM: 33000

COMPOUND_STRING: CN(C)CCCOc1nn(Cc2ccccc2)c2ccc([N+](=O)[O-])cc12
SUBJECT_OF_TEST: L. infantum promastigotes
QUALIFYING_SIGN: ≤
IC50, nM: 1000

COMPOUND_STRING: NCCOc1nn(Cc2ccccc2)c2ccc([N+](=O)[O-])cc12
SUBJECT_OF_TEST: L. infantum promastigotes
QUALIFYING_SIGN: ≤
IC50, nM: 1000

COMPOUND_STRING: CN(C)CCCCCOc1nn(Cc2ccccc2)c2ccc([N+](=O)[O-])cc12
SUBJECT_OF_TEST: L. infantum promastigotes
QUALIFYING_SIGN: =
IC50, nM: 930

###

Experiment: Cytotoxicity in mouse peritoneal macrophages (resazurin)
Assay type: cell-based
Settings: BALB/c, mouse, peritoneal macrophages, concentration that causes lysis of 50% of BALB/c mouse peritoneal macrophages
Reported CC50 at 48 h values for the following compounds.

COMPOUND_STRING: O=[N+]([O-])c1ccc2c(c1)c(OCCN1CCCCC1)nn2Cc1ccccc1
CC50 at 48 h [µM]: 24.4
//
COMPOUND_STRING: CNCCOc1nn(Cc2ccccc2)c2ccc([N+](=O)[O-])cc12
CC50 at 48 h [µM]: 61.4
//
COMPOUND_STRING: O=[N+]([O-])c1ccc2c(c1)c(OCCCN1CCCCC1)nn2Cc1ccccc1
CC50 at 48 h [µM]: 23.2
//
COMPOUND_STRING: CN(C)CCCOc1nn(Cc2ccccc2)c2ccc([N+](=O)[O-])cc12
CC50 at 48 h [µM]: 61
//
COMPOUND_STRING: O=[N+]([O-])c1ccc2c(c1)c(OCCCCCN1CCCCC1)nn2Cc1ccccc1
CC50 at 48 h [µM]: 21.1

###

Test system: L. amazonensis promastigotes
Assay: Susceptibility assay in promastigotes, L. amazonensis
Assay type: cell-based
Conditions: promastigotes, L. amazonensis, 72 h; read-out: IC50 ± SD
Known IC50 of a selection of compounds

COMPOUND_STRING: NCCOc1nn(Cc2ccccc2)c2ccc([N+](=O)[O-])cc12
SUBJECT_OF_TEST: L. amazonensis promastigotes
IC50: 0.99 µM

COMPOUND_STRING: NCCCOc1nn(Cc2ccccc2)c2ccc([N+](=O)[O-])cc12
SUBJECT_OF_TEST: L. amazonensis promastigotes
IC50: 0.81 µM

COMPOUND_STRING: CNCCOc1nn(Cc2ccccc2)c2ccc([N+](=O)[O-])cc12
SUBJECT_OF_TEST: L. amazonensis promastigotes
IC50: 0.82 µM

###

Assay: Cytotoxicity in mouse peritoneal macrophages (resazurin)
Format: cell-based
Settings: BALB/c, mouse, peritoneal macrophages, concentration that causes lysis of 50% of BALB/c mouse peritoneal macrophages
PROPERTY: CC50 at 48 h (µM)

COMPOUND: CN(C)CCOc1nn(Cc2ccccc2)c2ccc([N+](=O)[O-])cc12 [NV4]
PROPERTY: CC50 at 48 h
VALUE: 67.1

COMPOUND: CNCCCCCOc1nn(Cc2ccccc2)c2ccc([N+](=O)[O-])cc12 [NV15]
PROPERTY: CC50 at 48 h
VALUE: 5.6

COMPOUND: CN(C)CCCCCOc1nn(Cc2ccccc2)c2ccc([N+](=O)[O-])cc12 [NV14]
PROPERTY: CC50 at 48 h
VALUE: 2.5

COMPOUND: NCCOc1nn(Cc2ccccc2)c2ccc([N+](=O)[O-])cc12 [NV10]
PROPERTY: CC50 at 48 h
VALUE: 46.7

COMPOUND: NCCCOc1nn(Cc2ccccc2)c2ccc([N+](=O)[O-])cc12 [NV9]
PROPERTY: CC50 at 48 h
VALUE: 47.9

COMPOUND: NCCCCCOc1nn(Cc2ccccc2)c2ccc([N+](=O)[O-])cc12 [NV17]
PROPERTY: CC50 at 48 h
VALUE: 7.74

###

Test system: L. infantum promastigotes
Experiment: Susceptibility assay in promastigotes, L. infantum
Format: cell-based
Details: Leishmania infantum, 72 h, promastigotes, L. infantum, read-out: IC50 ± SD
The compounds listed here are annotated with their IC50.

COMPOUND_STRING: O=[N+]([O-])c1ccc2c(c1)c(OCCCCCN1CCCCC1)nn2Cc1ccccc1
QUALIFYING_SIGN: =
IC50 / nM: 1410
--
COMPOUND_STRING: CN(C)CCOc1nn(Cc2ccccc2)c2ccc([N+](=O)[O-])cc12
QUALIFYING_SIGN: ≤
IC50 / nM: 1000
--
COMPOUND_STRING: O=[N+]([O-])c1ccc2c(c1)c(OCCBr)nn2Cc1ccccc1
QUALIFYING_SIGN: =
IC50 / nM: 20400
--
COMPOUND_STRING: CNCCCCCOc1nn(Cc2ccccc2)c2ccc([N+](=O)[O-])cc12
QUALIFYING_SIGN: =
IC50 / nM: 1270
--
COMPOUND_STRING: NCCCOc1nn(Cc2ccccc2)c2ccc([N+](=O)[O-])cc12
QUALIFYING_SIGN: ≤
IC50 / nM: 1000

###

Assay: Cytotoxicity in mouse peritoneal macrophages (resazurin)
Assay type: cell-based
Details: concentration that causes lysis of 50% of BALB/c mouse peritoneal macrophages

COMPOUND: C[C@@H]1[C@H](O)[C@@H](C)/C=C/C=C/C=C/C=C/C=C/C=C/C=C/[C@H](O[C@@H]2O[C@H](C)[C@@H](O)[C@H](N)[C@@H]2O)C[C@@H]2O[C@](O)(C[C@@H](O)C[C@@H](O)[C@H](O)CC[C@@H](O)C[C@@H](O)CC(=O)O[C@H]1C)C[C@H](O)[C@H]2C(=O)O [AmB, Amphotericin B, reference compound]
CC50 at 48 h [µM]: 5.8
